Source: ChEMBL document CHEMBL1201862

System: OVCAR-5
Experiment: NCI tumour cell line growth inhibition, 48 h
Active and inactive are the calls of the source. Rule as the data show it: active = GI50 up to about 1.1 µM and inactive = higher.
Could you please report measured GI50 for the items listed next?

Give the measured GI50 of `Cc1cc(/N=C/c2ccc(N(C)C)cc2)n(-c2ccccc2)n1` .
> 100 µM (inactive)

What about CC(=O)OC12c3ccccc3C(c3ccccc31)C1C(=O)N(c3ccccc3O)C(=O)C12 (centres undefined) ?
> 100 µM (inactive)

Try this compound next: CSCCC(NC(=O)OCc1ccccc1)P(=O)(O)c1ccccc1 (centres undefined)
> 100 µM (inactive)

Same read-out for `CCc1cccc(CC)c1NC(=O)C1=C(C)NC(C)=C(C(=O)Nc2c(CC)cccc2CC)C1c1ccc([N+](=O)[O-])cc1` ?
44.7 µM (inactive)

* * *

Tested on: SK-MEL-2
Assay: NCI tumour cell line growth inhibition, 48 h
The source made the active and inactive calls. Cut-off read from the data, not from the text of the source: active = GI50 up to about 1.1 µM and inactive = higher.
quantity.name: GI50

State its GI50 on SK-MEL-2: CSc1nc(Br)nc2c1ncn2C1CC(Oc2ccc(C)cc2)C(COc2ccc(C)cc2)O1 (stereo not drawn)
> 100 µM (inactive)

Next molecule up: `CC1=NN(C(=O)Cc2ccccc2)C(=O)/C1=C\c1cccc(O)c1`
> 100 µM (inactive)

Now consider C[C@]12CCc3nonc3C1CC[C@@H]1C2CC[C@]2(C)C(=O)/C(=N\O)CC12 (stereo partly drawn) .
> 100 µM (inactive)

* * *

Test system: RXF 393
Test: NCI tumour cell line growth inhibition, 48 h
Activity calls are given as the source filed them. Cut-off read from the data, not from the text of the source: active = GI50 up to about 1.1 µM and inactive = higher. Non-standard residues stand in square brackets, D forms with d. Residues, ends and D or L forms follow the SMILES beside them. ξ: configuration not given here. Pentanoyl(2-O,4-OH,5-Cl) = O=C(O)C(O)CC(O)CCl; Ile(3ξ) = CCC(C)[C@H](N)C(=O)O; NMeV = CN[C@H](C(=O)O)C(C)C; NMeA = CN[C@@H](C)C(=O)O; βAla = NCCC(=O)O
quantity.name: GI50

For Cc1cc2c(c3oc(C(O)(CO)C4CO4)cc(=O)c13)C(=O)c1c(O)cccc1C2=O (stereo unspecified) , what is its reported GI50?
0.00125 µM (active)

Check O=C1CCCCC2N(C(c3ccccc3)c3ccccc3)CC[C@@]12c1ccccc1.O=C1CCCC[C@H]2N(C(c3ccccc3)c3ccccc3)CC[C@@]12c1ccccc1 (stereo partly specified) too.
4.32 µM (inactive)

Would you mind doing `Cc1cnccc1/N=N/c1ccc(N(C)C)cc1` as well?
14.9 µM (inactive)

Another compound: `CC(=O)Nc1ccc(/C=C2/NC(=S)N(/C=C3\C(=O)Oc4ccccc4C3=O)C2=O)cc1`
> 100 µM (inactive)

Another compound to check: `CC1=CC(=O)/C(=C/N2CCNC2=S)C(=O)O1`
> 100 µM (inactive)

Same read-out for COc1cc2c(oc(=O)c3cc(C)cc(OC)c32)c2c(C3OC(C)C(O)C(C)(O)C3O)ccc(O)c12 (stereo unspecified) ?
0.38 µM (active)

Same question, `Cc1nc2ccccc2c(=O)n1/N=C(\N=N\c1ccccc1)c1ccccc1Cl` this time
21.6 µM (inactive)

Quick one: OCC(O)C(O)C(O)C(O)c1nc2cc(Cl)ccc2[nH]1 (stereo unspecified)
> 100 µM (inactive)

Same question, `CSc1nc(Nc2ccccc2Cl)c2c(N)nn(C)c2n1` this time
47.2 µM (inactive)

Follow-up entry: O=C1c2cc(Cl)ccc2N=C(NCCCl)C2CSCN12 (stereo unspecified)
> 100 µM (inactive)

Next up: `CS(=O)(=O)CC1=Nc2nnc(CCCCCCCc3nnc4n3C(=O)C(CS(C)(=O)=O)=N4)n2C1=O`
> 100 µM (inactive)

Lookup CC(C)(C)C1=C(Br)C(Br)(C(C)(C)C)OP1(=O)c1ccccc1 (stereo unspecified)
> 100 µM (inactive)

Can you check `CC(=O)O[C@H]1C[C@@H](OC(C)=O)[C@@](C)(O)[C@@H]2[C@@H](OC(C)=O)[C@@]3(O)[C@H](/C=C(/CCl)[C@H]4O[C@H]4[C@@H](OC(C)=O)[C@@]12C)OC(=O)[C@@H]3C` next?
19.8 µM (inactive)

Same question for `COc1cccc(/C=N/NC(N)=O)c1O` please.
> 100 µM (inactive)

Try the compound `Cc1ccc(N2C(=O)C(Cl)=C(Cl)C2=O)cc1`
12.5 µM (inactive)

Follow-up entry: `c1ccc2c(c1)ccc1cc3cc(NCCCCNc4ccc5nc6c(ccc7ccccc76)cc5c4)ccc3nc12`
1.58 µM (inactive)

Next compound: CN1CC[C@]2(C)c3c(O)cccc3CC3CCCC1C32C (stereo partly specified)
> 100 µM (inactive)

O=C1/C(=C/c2cccnc2)C(n2cccc2)c2c(Br)sc(Br)c21 (stereo unspecified) , same question.
2.4 µM (inactive)

What would you report for CCC(C)[C@@H]1NC(=O)[C@@H]2CCCN2C(=O)C(CC(O)CCl)OC(=O)CCNC(=O)[C@H](C)N(C)C(=O)[C@H](C(C)C)N(C)C1=O (stereo partly specified) (cyclo([Ile(3ξ)][NMeV][NMeA][βAla][Pentanoyl(2-O,4-OH,5-Cl)]P)) ?
> 100 µM (inactive)

Thanks! And `Cc1nc2ccccc2c(=O)n1NC(=O)c1ccccc1[N+](=O)[O-]` ?
> 10 µM (inactive)

And what about the compound `CCN1CC2(C)CC[C@@H](OC)C34[C@@H]2[C@H](OC(C)=O)C2(OCO[C@@]25C[C@H](OC)C2C[C@]3(O)[C@@H]5[C@H]2O)[C@H]14` ?
15.8 µM (inactive)

Also need O=C1CCC2c3ccccc3NCN12 (stereo unspecified) , thanks.
> 100 µM (inactive)

Continue with `CC(=O)c1c(C(F)(F)F)[n+]([O-])c2cc(Cl)c(Cl)cc2[n+]1[O-]`
0.895 µM (active)

Input CC(=O)NC(Cc1c[nH]cn1)C(=O)N1CCCC1C(N)=O (stereo unspecified)
> 100 µM (inactive)

CCCCC(=C=C1CCCCC1O)C1CCCN1C(=O)OC(C)(C)C (stereo unspecified) , same question.
13 µM (inactive)

Could you do the same for `CCOC(=O)/C(=C\NC(C)(C)C)c1nc2ccccc2o1` , please?
24.7 µM (inactive)
